Entry source: ChEMBL document CHEMBL1128892

Molecular target: Alpha-2C adrenergic receptor (Homo sapiens)
Sequence (P18825 whole entry): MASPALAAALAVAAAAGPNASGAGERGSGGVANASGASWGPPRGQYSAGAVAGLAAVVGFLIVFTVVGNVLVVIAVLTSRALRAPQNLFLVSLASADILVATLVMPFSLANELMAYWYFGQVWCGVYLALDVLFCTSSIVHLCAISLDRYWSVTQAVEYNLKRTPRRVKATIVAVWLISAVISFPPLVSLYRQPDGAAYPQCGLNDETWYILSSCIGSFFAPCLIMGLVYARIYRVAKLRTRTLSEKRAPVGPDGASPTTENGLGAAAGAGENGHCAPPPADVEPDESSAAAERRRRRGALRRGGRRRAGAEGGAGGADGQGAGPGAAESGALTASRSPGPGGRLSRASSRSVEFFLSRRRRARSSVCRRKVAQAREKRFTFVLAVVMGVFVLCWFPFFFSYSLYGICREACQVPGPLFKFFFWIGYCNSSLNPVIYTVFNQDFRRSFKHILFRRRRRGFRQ
Assay: Alpha-2C adrenergic receptor agonistic potency as inhibition of forskolin-stimulated cyclic adenosine monophosphate synthesis
The threshold is 100 nM. Values of EC50 beneath it are tagged class 1; values meeting or exceeding it are tagged class 0.

> print(dat)
                                   molecule                             target.entity  class.label
1                Cc1c(NC2=NCCN2)ccc2nccnc12  Alpha-2C adrenergic receptor (Homo sapiens)      class 1
2               Brc1c(NC2=NCCN2)ccc2c1NCCN2  Alpha-2C adrenergic receptor (Homo sapiens)      class 0
3  CC1CN=C(Nc2ccc3nccnc3c2Br)N1 (stereo unspecified)  Alpha-2C adrenergic receptor (Homo sapiens)      class 0
4                Ic1c(NC2=NCCN2)ccc2nccnc12  Alpha-2C adrenergic receptor (Homo sapiens)      class 1
5            Cc1cnc2c(Br)c(NC3=NCCN3)ccc2n1  Alpha-2C adrenergic receptor (Homo sapiens)      class 0
6               Clc1c(NC2=NCCN2)ccc2nccnc12  Alpha-2C adrenergic receptor (Homo sapiens)      class 1

###

# Intrinsic activity per record follows
Molecular target: Alpha-2C adrenergic receptor (Homo sapiens)
Assay: Inhibitory activity against Alpha-2C adrenergic receptor relative to norepinephrine
experimental.readout: Intrinsic activity

> print(dat)
                                   molecule                             target.entity  recorded.value
1            Cc1cnc2c(Br)c(NC3=NCCN3)ccc2n1  Alpha-2C adrenergic receptor (Homo sapiens)             0.8
2               Brc1c(NC2=NCCN2)ccc2c1NCCN2  Alpha-2C adrenergic receptor (Homo sapiens)               1
3  CC1CN=C(Nc2ccc3nccnc3c2Br)N1 (configuration not stated)  Alpha-2C adrenergic receptor (Homo sapiens)             0.8
4               Brc1c(NC2=NCCN2)ccc2nccnc12  Alpha-2C adrenergic receptor (Homo sapiens)               1
5               Clc1c(NC2=NCCN2)ccc2nccnc12  Alpha-2C adrenergic receptor (Homo sapiens)               1
6                Cc1c(NC2=NCCN2)ccc2nccnc12  Alpha-2C adrenergic receptor (Homo sapiens)               1
7                Ic1c(NC2=NCCN2)ccc2nccnc12  Alpha-2C adrenergic receptor (Homo sapiens)               1

###

Molecular target: Alpha-2B adrenergic receptor (Homo sapiens)
Sequence (P18089 whole entry): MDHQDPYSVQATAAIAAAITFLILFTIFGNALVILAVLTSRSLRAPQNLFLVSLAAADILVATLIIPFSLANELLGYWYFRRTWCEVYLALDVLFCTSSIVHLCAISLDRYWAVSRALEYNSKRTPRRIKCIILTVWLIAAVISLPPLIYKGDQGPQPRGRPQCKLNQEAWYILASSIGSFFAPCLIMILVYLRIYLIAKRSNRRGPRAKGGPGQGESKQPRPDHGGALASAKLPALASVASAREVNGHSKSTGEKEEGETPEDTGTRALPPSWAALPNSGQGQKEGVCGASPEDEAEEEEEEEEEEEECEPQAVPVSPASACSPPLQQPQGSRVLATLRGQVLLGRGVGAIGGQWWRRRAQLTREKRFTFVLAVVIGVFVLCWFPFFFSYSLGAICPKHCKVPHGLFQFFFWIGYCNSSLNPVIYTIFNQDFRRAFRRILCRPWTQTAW
Assay: Alpha-2B adrenergic receptor agonistic potency as inhibition of forskolin-stimulated cyclic adenosine monophosphate synthesis
pEC50: −log10 of the molar value.
experimental.readout: pEC50

> print(dat)
                  smiles.entry                             target.entity  experimental.readout  recorded.value
1  Clc1c(NC2=NCCN2)ccc2nccnc12  Alpha-2B adrenergic receptor (Homo sapiens)                 pEC50            6.76
2  Brc1c(NC2=NCCN2)ccc2c1NCCN2  Alpha-2B adrenergic receptor (Homo sapiens)                 pEC50            6.05
3   Cc1c(NC2=NCCN2)ccc2nccnc12  Alpha-2B adrenergic receptor (Homo sapiens)                 pEC50            7.11
